- System: S. aureus GC 1131
- METHOD: In vitro MIC, broth dilution
- Assay type: cell-based
- COND: Staphylococcus aureus, GC1131; S. aureus GC 1131; read-out: MIC

{"columns": ["COMPOUND", "MIC"],
 "data": [
  ["COc1ccc(Cn2c(=O)ccn([C@@H]3OC([C@H](O)[C@H](NCCCNC(=O)[C@H](CC(C)C)NC(=O)[C@H](CCCNC(=N)N)NC(=O)N[C@H](C(=O)O)C(C)C)C(=O)O)[C@@H](O)[C@H]3O)c2=O)cc1 (stereo partly drawn) [Example 50]", "> 128 µg/mL"],
  ["COc1ccc(Cn2c(=O)ccn([C@@H]3OC([C@H](O)[C@H](NCCCNC(=O)[C@H](N)CC(C)C)C(=O)OC(C)(C)C)[C@@H](O[Si](C)(C)C(C)(C)C)[C@H]3O[Si](C)(C)C(C)(C)C)c2=O)cc1 (stereo partly drawn) [Example 57]", "64 µg/mL"],
  ["COc1ccc(Cn2c(=O)ccn([C@@H]3OC([C@H](O)[C@H](NCCCNC(=O)[C@@H](N)CCC(=O)OC(C)(C)C)C(=O)OC(C)(C)C)[C@@H](O[Si](C)(C)C(C)(C)C)[C@H]3O[Si](C)(C)C(C)(C)C)c2=O)cc1 (stereo partly drawn) [Example 21]", "> 128 µg/mL"],
  ["COc1ccc(Cn2c(=O)ccn([C@@H]3OC([C@H](O)[C@H](NCCCNC(=O)[C@H](C)N)C(=O)OC(C)(C)C)[C@@H](O[Si](C)(C)C(C)(C)C)[C@H]3O[Si](C)(C)C(C)(C)C)c2=O)cc1 (stereo partly drawn) [Example 15]", "4 µg/mL"],
  ["COc1ccc(Cn2c(=O)ccn([C@@H]3OC([C@H](O)[C@H](NCCCNC(=O)[C@@H](N)CC(C)C)C(=O)OC(C)(C)C)[C@@H](O[Si](C)(C)C(C)(C)C)[C@H]3O[Si](C)(C)C(C)(C)C)c2=O)cc1 (stereo partly drawn) [Example 5]", "32 µg/mL"],
  ["CCCCCCCCCCCCCC(=O)OC(C)[C@H](NC(=O)OCc1ccccc1)C(=O)NCCCNC(C(=O)OCC)C(O)C1O[C@@H](n2ccc(=O)[nH]c2=O)[C@H](OC(C)=O)[C@@H]1OC(C)=O (stereo in doubt) [Example 58]", "> 128 µg/mL"],
  ["CCOC(=O)C(NCCCNC(=O)[C@@H](N)CC(C)C)[C@@H](OC(C)=O)[C@H]1O[C@@H](n2ccc(=O)[nH]c2=O)[C@H](OC(C)=O)[C@@H]1OC(C)=O (stereo partly drawn) [Example 40]", "> 128 µg/mL"],
  ["CCOC(=O)C(NCCCNC(=O)[C@H](CC(C)C)NC(=O)OCc1ccccc1)C(OC(C)=O)[C@H]1O[C@@H](n2ccc(=O)[nH]c2=O)[C@H](OC(C)=O)[C@@H]1OC(C)=O (stereo partly drawn) [Example 38b]", "> 128 µg/mL"],
  ["COc1ccc(Cn2c(=O)ccn([C@@H]3OC([C@H](O)[C@H](NCCCNC(=O)[C@@H](NC(=O)OCc4ccccc4)[C@H](C)O)C(=O)OC(C)(C)C)[C@@H](O)[C@H]3O)c2=O)cc1 (stereo partly drawn) [Example 44]", "> 128 µg/mL"],
  ["COc1ccc(Cn2c(=O)ccn([C@@H]3OC([C@H](O)[C@H](NCCCNC(=O)[C@H](CC(C)C)NC(=O)[C@H](CCCNC(=N)N[N+](=O)[O-])NC(=O)N[C@H](C(=O)OCc4ccccc4)C(C)C)C(=O)O)[C@@H](O)[C@H]3O)c2=O)cc1 (stereo partly drawn) [Example 49]", "> 128 µg/mL"],
  ["CCOC(=O)C(NCCCNC(=O)[C@@H](N)[C@H](C)O)[C@@H](O)[C@H]1O[C@@H](n2ccc(=O)[nH]c2=O)[C@H](OC(C)=O)[C@@H]1OC(C)=O (stereo partly drawn) [Example 33]", "> 128 µg/mL"],
  ["COc1ccc(Cn2c(=O)ccn([C@@H]3OC([C@H](O)[C@H](NCCCNC(=O)CCCCCCCCCCN)C(=O)OC(C)(C)C)[C@@H](O[Si](C)(C)C(C)(C)C)[C@H]3O[Si](C)(C)C(C)(C)C)c2=O)cc1 (stereo partly drawn) [Example 25]", "128 µg/mL"]
]}
